- tested-system: T1, recombinant human TL1A (human, UniProt O95150 71-251)
- T1 construct: The ELISA method says only 'recombinant TL1A' coated on plates; homotrimeric cytokine; also called TNFSF15; recombinant TL1A
- T1 chain: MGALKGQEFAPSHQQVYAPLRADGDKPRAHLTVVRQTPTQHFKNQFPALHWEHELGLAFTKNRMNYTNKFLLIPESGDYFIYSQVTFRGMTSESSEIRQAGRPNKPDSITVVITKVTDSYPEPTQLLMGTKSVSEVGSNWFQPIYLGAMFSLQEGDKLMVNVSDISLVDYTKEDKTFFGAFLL
- assay-details: competition ELISA on coated recombinant TL1A; competitor biotinylated TL1A-0002
measured-parameter: pIC50
Please keep in mind that pIC50 is minus log10 of the molar concentration; only the number is needed.

Please review the following examples before continuing.
TL1A-0262 (antibody, human IgG1, kappa, V domains shown, human IgG1 effector-function-minimized / human kappa) VH: QVQLVQSGAEVKKPGASVKVSCKASGYDYTYYGISWVRQAPGQGLEWMGWISTYNTGTHYAQKLQGRVTMTTDTSTSTAYMELRSLRSDDTAVYYCARESYYGSGAFRGGMDVWGQGTTVTVSS VL: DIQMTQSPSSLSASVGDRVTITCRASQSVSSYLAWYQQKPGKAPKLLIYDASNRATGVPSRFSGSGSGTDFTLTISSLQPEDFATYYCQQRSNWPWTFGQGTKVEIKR ... 8.14
TL1A-0254 (antibody, V domains shown, IgG1 effector-minimized/kappa) VH: QVQLVQSGAEVKKPGASVKVSCKASGYDFTYYGISWVRQAPGQGLEWMGWISTYGGNTHYAPSLQGRVTMTTDTSTSTAYMELRSLRSDDTAVYYCARESYYGSGAFRGGMDVWGQGTTVTVSS VL: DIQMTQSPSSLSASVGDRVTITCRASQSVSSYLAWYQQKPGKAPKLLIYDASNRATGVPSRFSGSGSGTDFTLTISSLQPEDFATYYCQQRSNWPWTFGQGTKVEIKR ... 7.33

Ask | Which measured pIC50 value corresponds to TL1A-0287 (antibody, human IgG1, kappa, V domains shown, human IgG1 effector-function-minimized / human kappa) VH: QVQLVQSGAEVKKPGASVKVSCKASGYDFTYYGVSWVRQAPGQGLEWMGWISTYNDNTHYAQKLQGRVTMTTDTSTSTAYMELRSLRSDDTAVYYCARESYYGSGAHRGGMDVWGQGTTVTVSS VL: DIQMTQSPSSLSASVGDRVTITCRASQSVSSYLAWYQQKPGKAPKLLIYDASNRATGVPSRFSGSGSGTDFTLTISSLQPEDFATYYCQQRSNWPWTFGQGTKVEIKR ?
Reply | 8.00
